protein stability index: recorded values
B1: KRT71 (parent)
chain: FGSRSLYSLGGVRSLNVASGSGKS

- Variants of: B1
- test_summary: protein stability index of a GFP-peptide fusion (GPS, HEK-293T) (PSI 1-6); higher = more stable;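 also: lentivirally expressed fusions sorted by FACS into six bins by GFP to DsRed ratio, PSI derived from sequencing read proportions per bin multiplied by bin number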
- experimental_context: c terminus: a fixed tail appended

{"variant_identifier": "Y7V", "protein stability index": 2.83}
{"variant_identifier": "L6T", "protein stability index": 3.13}
{"variant_identifier": "S14M", "protein stability index": 1.65}
{"variant_identifier": "V12H", "protein stability index": 1.68}
{"variant_identifier": "V17F", "protein stability index": 2.17}
{"variant_identifier": "K23R", "protein stability index": 2.35}
{"variant_identifier": "S8A", "protein stability index": 2.17}
{"variant_identifier": "S14F", "protein stability index": 1.89}
{"variant_identifier": "R4S", "protein stability index": 2.31}
{"variant_identifier": "L6E", "protein stability index": 3.14}
{"variant_identifier": "S3V", "protein stability index": 2.23}
{"variant_identifier": "A18E", "protein stability index": 2.11}
{"variant_identifier": "S5G", "protein stability index": 1.6}
{"variant_identifier": "S5D", "protein stability index": 2.31}
{"variant_identifier": "R4Y", "protein stability index": 2.77}
{"variant_identifier": "N16V", "protein stability index": 2.06}
{"variant_identifier": "N16Q", "protein stability index": 2.44}
{"variant_identifier": "S19W", "protein stability index": 2.85}
{"variant_identifier": "L15N", "protein stability index": 2.33}
{"variant_identifier": "S8C", "protein stability index": 2.1}
{"variant_identifier": "S3C", "protein stability index": 1.56}
{"variant_identifier": "L15M", "protein stability index": 2.18}
{"variant_identifier": "N16T", "protein stability index": 1.47}
{"variant_identifier": "R4V", "protein stability index": 1.52}
{"variant_identifier": "L6A", "protein stability index": 1.67}
{"variant_identifier": "S14K", "protein stability index": 1.81}
{"variant_identifier": "G20F", "protein stability index": 2.04}
{"variant_identifier": "G20A", "protein stability index": 1.96}
{"variant_identifier": "N16A", "protein stability index": 1.93}
{"variant_identifier": "R13P", "protein stability index": 1.81}
{"variant_identifier": "G2I", "protein stability index": 1.78}
{"variant_identifier": "G20I", "protein stability index": 1.72}
{"variant_identifier": "G10R", "protein stability index": 1.6}
{"variant_identifier": "K23N", "protein stability index": 2.09}
{"variant_identifier": "A18C", "protein stability index": 1.73}
{"variant_identifier": "V12F", "protein stability index": 1.66}
{"variant_identifier": "S21M", "protein stability index": 1.87}
{"variant_identifier": "G11L", "protein stability index": 2.9}
{"variant_identifier": "Y7P", "protein stability index": 3.75}
{"variant_identifier": "G2F", "protein stability index": 2.33}
{"variant_identifier": "L6K", "protein stability index": 2.91}
{"variant_identifier": "G11T", "protein stability index": 2.4}
{"variant_identifier": "S5T", "protein stability index": 1.64}
{"variant_identifier": "G22N", "protein stability index": 2.27}
{"variant_identifier": "S21G", "protein stability index": 1.91}
{"variant_identifier": "S19T", "protein stability index": 2.06}
{"variant_identifier": "G2H", "protein stability index": 1.32}
{"variant_identifier": "S19N", "protein stability index": 2.38}
{"variant_identifier": "G11C", "protein stability index": 2.87}
{"variant_identifier": "N16R", "protein stability index": 2.07}
{"variant_identifier": "V12N", "protein stability index": 2.28}
{"variant_identifier": "Y7L", "protein stability index": 1.6}
{"variant_identifier": "G11D", "protein stability index": 2.25}
{"variant_identifier": "G2M", "protein stability index": 1.99}
{"variant_identifier": "G10W", "protein stability index": 2.79}
{"variant_identifier": "S21P", "protein stability index": 2.07}
{"variant_identifier": "G11N", "protein stability index": 2.24}
{"variant_identifier": "S14G", "protein stability index": 2.04}
{"variant_identifier": "S14H", "protein stability index": 2}
{"variant_identifier": "L15Q", "protein stability index": 2.51}
{"variant_identifier": "L6N", "protein stability index": 2.76}
{"variant_identifier": "Y7S", "protein stability index": 3.89}
{"variant_identifier": "N16C", "protein stability index": 1.97}
{"variant_identifier": "L6I", "protein stability index": 2.29}
{"variant_identifier": "G11R", "protein stability index": 2.46}
{"variant_identifier": "V17W", "protein stability index": 1.86}
{"variant_identifier": "S24P", "protein stability index": 2.33}
{"variant_identifier": "A18M", "protein stability index": 2.95}
{"variant_identifier": "A18N", "protein stability index": 2.81}
{"variant_identifier": "F1L", "protein stability index": 3.43}
{"variant_identifier": "V12G", "protein stability index": 2.13}
{"variant_identifier": "G20L", "protein stability index": 1.55}
{"variant_identifier": "N16L", "protein stability index": 1.73}
{"variant_identifier": "F1E", "protein stability index": 3.83}
{"variant_identifier": "S3Y", "protein stability index": 2.7}
{"variant_identifier": "F1A", "protein stability index": 4.02}
{"variant_identifier": "L15C", "protein stability index": 2.35}
{"variant_identifier": "V17H", "protein stability index": 1.97}
{"variant_identifier": "S21D", "protein stability index": 2.04}
{"variant_identifier": "G10S", "protein stability index": 1.83}
{"variant_identifier": "L6Q", "protein stability index": 2.62}
{"variant_identifier": "L9R", "protein stability index": 2.56}
{"variant_identifier": "S19Q", "protein stability index": 2.03}
{"variant_identifier": "G2K", "protein stability index": 3.75}
{"variant_identifier": "R13W", "protein stability index": 1.67}
{"variant_identifier": "L6P", "protein stability index": 1.74}
{"variant_identifier": "L15T", "protein stability index": 1.92}
{"variant_identifier": "R4E", "protein stability index": 2.44}
{"variant_identifier": "V12M", "protein stability index": 1.68}
{"variant_identifier": "V12T", "protein stability index": 2.27}
{"variant_identifier": "L9G", "protein stability index": 2.66}
